Origin of measurements: ChEMBL document CHEMBL3259688

assay: Antagonist activity at sigma-2 receptor in mouse EMT6 cells assessed as inhibition of cell proliferation after 48 hrs by MTS assay; assay type: cell-based; conditions: EMT6, 48 h
Items are presented alongside their recorded EC50.

Query: # EC50 lookup, item `Fc1ccc(-n2cc(CCCCN3CCC4(CC3)OCc3ccccc34)c3ccccc32)cc1`
Result: 5.3 µM

Kindly consider the entry below.
Query: # EC50 lookup, item `COc1ccc(-n2cc(C(=O)NCCCCN3CCc4cc(OC)c(OC)cc4C3)nn2)cc1`
Result: > 200 µM

* * *

target: Sigma non-opioid intracellular receptor 1 (Cavia porcellus); assay: Displacement of (+)-[3H]pentazocine from sigma-1 receptor in guinea pig brain membrane homogenate after 90 mins by liquid scintillation counting analysis
Flag rule - Ki less than 20 µM flags yes (1); the remaining entries get no (0).

Consider the worked cases shown below.
Query: Quick check: Ki of `COc1cc2c(cc1OC)CN(CCCCNC(=O)c1cn(Cc3ccc(OCCF)cc3)nn1)CC2` under 20 µM?
Result: no (0)

Query: Quick check: Ki of `COc1cc2c(cc1OC)CN(CCCCNC(=O)c1ccc(-c3cn(CCF)nn3)cc1)CC2` under 20 µM?
Result: no (0)

Query: Quick check: Ki of `COc1cccc(-n2cc(C(=O)NCCN3CCc4cc(OC)c(OC)cc4C3)nn2)c1` under 20 µM?
Result: no (0)

Query: Quick check: Ki of `COc1cc2c(cc1OC)CN(CCCCNC(=O)c1cn(-c3ccccc3OCCF)nn1)CC2` under 20 µM?
Result: yes (1)

Query: Quick check: Ki of `C#CCOc1ccc(C#N)cc1C(=O)NCCCCN1CCc2cc(OC)c(OC)cc2C1` under 20 µM?
Result: yes (1)

Next:
Query: Quick check: Ki of `COc1ccc(Cn2cc(C(=O)NCCCCN3CCc4cc(OC)c(OC)cc4C3)nn2)cc1` under 20 µM?
Result: yes (1)

Query: Quick check: Ki of `COc1cc2c(cc1OC)CN(CCCCNC(=O)c1cn(Cc3cccc(OCCF)c3)nn1)CC2` under 20 µM?
Result: no (0)

* * *

assay: Lipophilicity, log P of the compound; type: physicochemical; conditions: octanol/water
Items are presented alongside their recorded logP.
Give the figure only, with no unit attached.

Please review the entries below; each comes with its answer.
Query: # logP lookup, item `CN1CC[C@]2(c3cccc(O)c3)CC/C(=C/c3ccc(Cl)c(Cl)c3)[C@@H]1C2`
Result: 4.34

Query: # logP lookup, item `COc1cc2c(cc1OC)CN(CCCCNC(=O)c1cc(C)ccc1OC)CC2`
Result: 3.55

Query: # logP lookup, item COc1cccc2c1CCCC2CCCN1CCN(C2CCCCC2)CC1 (configuration not stated)
Result: 5

Query: # logP lookup, item Fc1ccc(-n2cc(CCCCN3CCC4(CC3)OCc3ccccc34)c3ccccc32)cc1 [SIRAMESINE]
Result: 6.07

Query: # logP lookup, item `COc1cc2c(cc1OC)CN(CCCCNC(=O)c1cc(C)ccc1OCCF)CC2`
Result: 3.74

Query: # logP lookup, item `COc1cc2c(cc1OC)CN(CCCCNC(=O)c1cc(I)ccc1OCCF)CC2`
Result: 4.61

Kindly consider the entry below.
Query: # logP lookup, item `CN1CC[C@]2(c3cccc(O)c3)CC/C(=C/c3ccccc3)[C@@H]1C2`
Result: 3.22

* * *

experiment: Antagonist activity at sigma-2 receptor in mouse EMT6 cells assessed as inhibition of cell proliferation after 24 hrs by MTS assay; format: cell-based; conditions: EMT6, 24 h
MEASURED_ENDPOINT: pEC50
Keep it numeric: pEC50 is minus log10 of the concentration in mol/L.

Query: # pEC50 lookup, item `Fc1ccc(-n2cc(CCCCN3CCC4(CC3)OCc3ccccc34)c3ccccc32)cc1`
Result: 4.83

* * *

experiment: Selectivity ratio of Ki for sigma-1 receptor in guinea pig brain membrane homogenate to Ki for sigma-2 receptor in rat liver membrane homogenate; assay type: cell membranes
MEASURED_ENDPOINT: Ratio Ki
Give the figure only, with no unit attached.

Please review the entries below; each comes with its answer.
Query: # Ratio Ki lookup, item `COc1cccc(Cn2cc(C(=O)NCCN3CCc4cc(OC)c(OC)cc4C3)nn2)c1`
Result: 373

Query: # Ratio Ki lookup, item `COc1cc2c(cc1OC)CN(CCCCNC(=O)c1ccc(-c3cn(CCOCCF)nn3)cc1)CC2`
Result: 107

Query: # Ratio Ki lookup, item `C#CCOc1ccc(C#N)cc1C(=O)NCCCCN1CCc2cc(OC)c(OC)cc2C1`
Result: 301

Query: # Ratio Ki lookup, item `COc1cccc(-n2cc(C(=O)NCCCCN3CCc4cc(OC)c(OC)cc4C3)nn2)c1`
Result: 6730

Query: # Ratio Ki lookup, item `COc1ccc(Cn2cc(C(=O)NCCCCN3CCc4cc(OC)c(OC)cc4C3)nn2)cc1`
Result: 669

Query: # Ratio Ki lookup, item `COc1ccccc1Cn1cc(C(=O)NCCN2CCc3cc(OC)c(OC)cc3C2)nn1`
Result: 118

Query: # Ratio Ki lookup, item `COc1cc2c(cc1OC)CN(CCCCNC(=O)c1c[nH]nn1)CC2`
Result: 10.7

Query: # Ratio Ki lookup, item `COc1cc2c(cc1OC)CN(CCCCNC(=O)c1cc(C#N)ccc1OCc1cn(CCF)nn1)CC2`
Result: 442

Query: # Ratio Ki lookup, item `COc1cc2c(cc1OC)CN(CCCCNC(=O)c1cn(-c3cccc(OCCF)c3)nn1)CC2`
Result: 715

Query: # Ratio Ki lookup, item `COc1ccc(Cn2cc(C(=O)NCCN3CCc4cc(OC)c(OC)cc4C3)nn2)cc1`
Result: 906

Next:
Query: # Ratio Ki lookup, item `COc1cc2c(cc1OC)CN(CCCCNC(=O)c1cc(-n3cc(CN(C)C)nn3)ccc1OC)CC2`
Result: 395

Query: # Ratio Ki lookup, item `COc1cc2c(cc1OC)CN(CCCCNC(=O)c1cc(-n3cc(COCCOCCF)nn3)ccc1OC)CC2`
Result: 174

Query: # Ratio Ki lookup, item `COc1cc2c(cc1OC)CN(CCCCNC(=O)c1ccc(-c3cn(CCF)nn3)cc1)CC2`
Result: 517

Query: # Ratio Ki lookup, item `COc1cc2c(cc1OC)CN(CCCCNC(=O)c1ccc(-c3cn(CCOCCOCCF)nn3)cc1)CC2`
Result: 75

Query: # Ratio Ki lookup, item `COc1cc2c(cc1OC)CN(CCCCNC(=O)c1cn(Cc3ccccc3)nn1)CC2`
Result: 361

Query: # Ratio Ki lookup, item `COc1cccc(-n2cc(C(=O)NCCN3CCc4cc(OC)c(OC)cc4C3)nn2)c1`
Result: 426

Query: # Ratio Ki lookup, item `COc1cccc(Cn2cc(C(=O)NCCCCN3CCc4cc(OC)c(OC)cc4C3)nn2)c1`
Result: 1180

Query: # Ratio Ki lookup, item `COc1cc2c(cc1OC)CN(CCCCNC(=O)c1cn(-c3ccc(OCCF)cc3)nn1)CC2`
Result: 2120

* * *

target: Sigma non-opioid intracellular receptor 1 (Cavia porcellus, UniProt Q60492); assay: Displacement of (+)-[3H]pentazocine from sigma-1 receptor in guinea pig brain membrane homogenate after 90 mins by liquid scintillation counting analysis
Sequence (Q60492 whole entry): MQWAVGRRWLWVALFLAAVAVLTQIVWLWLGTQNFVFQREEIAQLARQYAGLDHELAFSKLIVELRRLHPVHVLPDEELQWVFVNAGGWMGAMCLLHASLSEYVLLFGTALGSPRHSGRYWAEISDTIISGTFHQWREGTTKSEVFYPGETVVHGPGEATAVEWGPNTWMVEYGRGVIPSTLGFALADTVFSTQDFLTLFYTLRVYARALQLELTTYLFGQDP
MEASURED_ENDPOINT: Ki (µM)
Numeric answer only, unit µM assumed.

Please review the entries below; each comes with its answer.
Query: # Ki lookup, item `COc1ccccc1Cn1cc(C(=O)NCCN2CCc3cc(OC)c(OC)cc3C2)nn1`
Result: 18.6

Query: # Ki lookup, item `COc1cc2c(cc1OC)CN(CCCCNC(=O)c1cn(-c3ccc(OCCF)cc3)nn1)CC2`
Result: 46.3

Query: # Ki lookup, item `COc1cc2c(cc1OC)CN(CCCCNC(=O)c1cc(-n3cc(COCCOCCF)nn3)ccc1OC)CC2`
Result: 11.5

Query: # Ki lookup, item `COc1ccccc1Cn1cc(-c2ccc(C(=O)NCCCCN3CCc4cc(OC)c(OC)cc4C3)cc2)nn1`
Result: 8.58

Next:
Query: # Ki lookup, item `COc1cc2c(cc1OC)CN(CCNC(=O)c1cn(-c3ccccc3OC)nn1)CC2`
Result: 15.5

Query: # Ki lookup, item `COc1cccc(Cn2cc(C(=O)NCCN3CCc4cc(OC)c(OC)cc4C3)nn2)c1`
Result: 80.1

Query: # Ki lookup, item `COc1cc2c(cc1OC)CN(CCCCNC(=O)c1cn(-c3ccccc3OC)nn1)CC2`
Result: 13.1

* * *

target: Sigma non-opioid intracellular receptor 1 (Cavia porcellus, UniProt Q60492); test: Displacement of (+)-[3H]pentazocine from sigma-1 receptor in guinea pig brain membrane homogenate after 90 mins by liquid scintillation counting analysis
MEASURED_ENDPOINT: Ki (µM)
Numeric answer only, unit µM assumed.

Please review the entries below; each comes with its answer.
Query: # Ki lookup, item `COc1cc2c(cc1OC)CN(CCCCNC(=O)c1cc(-n3cc(CN(C)C)nn3)ccc1OCCF)CC2`
Result: 21.9

Query: # Ki lookup, item `COc1cc2c(cc1OC)CN(CCCCNC(=O)c1cc(C#N)ccc1OCc1cn(CCF)nn1)CC2`
Result: 14.1

Next:
Query: # Ki lookup, item `COc1cc2c(cc1OC)CN(CCCCNC(=O)c1cn(Cc3ccc(O)cc3)nn1)CC2`
Result: 63.5

Query: # Ki lookup, item `COc1cccc(Cn2cc(C(=O)NCCCCN3CCc4cc(OC)c(OC)cc4C3)nn2)c1`
Result: 12.7

Query: # Ki lookup, item `COc1cc2c(cc1OC)CN(CCCCNC(=O)c1cn(-c3cccc(OCCF)c3)nn1)CC2`
Result: 17.9
